From: patent US20180051079A1

List of binding relative to wild-type Fc values.
# systemTested: T1, CD32B (UniProt P31994 43-217, limits assumed)
# T1 construct: Only the name is printed; also called FcγRIIB
# T1 sequence (looked up): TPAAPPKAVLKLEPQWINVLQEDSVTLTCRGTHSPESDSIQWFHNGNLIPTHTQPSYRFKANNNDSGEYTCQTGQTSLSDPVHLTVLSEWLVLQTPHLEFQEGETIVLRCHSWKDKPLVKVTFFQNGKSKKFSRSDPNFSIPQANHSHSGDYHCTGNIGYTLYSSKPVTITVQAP
# assay: assay not named in Table 4
The answer should be a number; do not append a unit.

Task item: Returns the measured binding relative to wild-type Fc for the input binder. Input: Fc variant D270E G316D P396L R416G (other, UniProt P01857-1 104-330, looked up, domain: Fc; also called D270E P396L G316D R416G) DKTHTCPPCPAPELLGGPSVFLFPPKPKDTLMISRTPEVTCVVVDVSHEEPEVKFNWYVDGVEVHNAKTKPREEQYNSTYRVVSVLTVLHQDWLNDKEYKCKVSNKALPAPIEKTISKAKGQPREPQVYTLPPSRDELTKNQVSLTCLVKGFYPSDIAVEWESNGQPENNYKTTPLVLDSDGSFFLYSKLTVDKSGWQQGNVFSCSVMHEALHNHYTQKSLSLSPGK
Reply: 1.07

Continuing:
Task item: Returns the measured binding relative to wild-type Fc for the input binder. Input: Fc variant R255L D270E R292G P396L (other, UniProt P01857-1 104-330, looked up, domain: Fc) DKTHTCPPCPAPELLGGPSVFLFPPKPKDTLMISLTPEVTCVVVDVSHEEPEVKFNWYVDGVEVHNAKTKPGEEQYNSTYRVVSVLTVLHQDWLNGKEYKCKVSNKALPAPIEKTISKAKGQPREPQVYTLPPSRDELTKNQVSLTCLVKGFYPSDIAVEWESNGQPENNYKTTPLVLDSDGSFFLYSKLTVDKSRWQQGNVFSCSVMHEALHNHYTQKSLSLSPGK
Reply: 0.65

Task item: Returns the measured binding relative to wild-type Fc for the input binder. Input: Fc variant F243L D270E G316D R416G (other, UniProt P01857-1 104-330, looked up, domain: Fc) DKTHTCPPCPAPELLGGPSVFLLPPKPKDTLMISRTPEVTCVVVDVSHEEPEVKFNWYVDGVEVHNAKTKPREEQYNSTYRVVSVLTVLHQDWLNDKEYKCKVSNKALPAPIEKTISKAKGQPREPQVYTLPPSRDELTKNQVSLTCLVKGFYPSDIAVEWESNGQPENNYKTTPPVLDSDGSFFLYSKLTVDKSGWQQGNVFSCSVMHEALHNHYTQKSLSLSPGK
Reply: 0.2
